# EXPERIMENT_NOTES: MRT (0 to infinity) in mouse at 10 mg/kg, po measured after 5 to 720 mins by LC-tandem mass spectrometry analysis
# Format: ADME, organism-based
# RUN_PARAMETERS: in vivo
ASSAY_READOUT: MRT inf (h)
# number only, unit h dropped from output

Entry O=C(CC(=O)Nc1ccc2c(/C=C/c3ccccn3)n[nH]c2c1)Nc1cccc(F)c1 ; MRT inf = 2.2

###

# EXPERIMENT_NOTES: MRT (0 to infinity) in mouse at 1 mg/kg, iv measured after 2 to 720 mins by LC-tandem mass spectrometry analysis
# Assay type: ADME, organism-based
# RUN_PARAMETERS: in vivo
ASSAY_READOUT: MRT inf

Entry O=C(CC(=O)Nc1ccc2c(/C=C/c3ccccn3)n[nH]c2c1)Nc1cccc(F)c1 ; MRT inf = 24 min
